assay: AUC (0 to 24 hrs) in Sprague-Dawley rat at 10 mg/kg, po measured for 24 hrs by LC-MS/MS analysis; type: ADME, organism-based; details: in vivo
endpointName: AUC(0-t) at 24 h (ng·h/mL)
Answers are plain numbers, in ng·h/mL.

AUC(0-t) at 24 h recorded for this molecule, `COCCCOc1cc2c(nc1OC)-c1cc(=O)c(C(=O)O)cn1[C@H](C(C)C)C2` , is 13900

###

assay: Drug concentration in Sprague-Dawley rat liver at 10 mg/kg, po measured for 24 hrs by LC-MS/MS analysis; assay type: ADME, organism-based; conditions: read-out: Ct
endpointName: concentration at 24 h (ng/g)
One number for each entry, in ng/g.

concentration at 24 h recorded for this compound, `COCCCOc1cc2c(nc1OC)-c1cc(=O)c(C(=O)O)cn1[C@H](C(C)C)C2` , is 93
